Assay: in vivo
Set-up: species or system male CD-1 mice
Conditions: male, CD-1, mouse, sc, 5 mg/kg
Bridge positions count the residues as written; N and C are the ends. Square brackets hold non-standard residues; d marks the D form. Peptide text beside a SMILES is read from it. * marks the point of attachment. Lauroyl = CCCCCCCCCCCC(=O)*; Dab = NCC[C@H](N)C(=O)O
assay_readout: level at 0.25 h (ng/mL)
Note: unit ng/mL is implicit; provide only the numeric part.

Notebook: CCCCCCCCCCCC(=O)NCCCC[C@@H]1NC(=O)[C@H](Cc2ccc(O)cc2)NC(=O)[C@@H]2CSSC[C@H](NC(=O)[C@H](C)NC(=O)[C@H](Cc3c[nH]cn3)NC(=O)[C@H](Cc3ccc(O)cc3)NC(=O)[C@@H]3CCCN3C(=O)[C@H]3CCCN3C(=O)[C@H](CCCCN)NC1=O)C(=O)N[C@@H](CCCNC(=N)N)C(=O)N[C@@H](C)C(=O)N1CCC[C@@H]1C(=O)N[C@@H](CCN)C(=O)N[C@@H](CCCNC(=N)N)C(=O)N[C@@H](Cc1ccc(O)cc1)C(=O)N2 [Ex. 17] (cyclo(YHACRA[dP][Dab]RYCYK(Lauroyl)K[dP]P); disulfide 4-11) , level at 0.25 h read as 140

###

Experiment: in vivo
Parameters: species or system male CD-1 mice
Settings: male, CD-1, mouse, iv, 1 mg/kg
Bridge positions count the residues as written; N and C are the ends. Square brackets hold non-standard residues; d marks the D form. Peptide text beside a SMILES is read from it. * marks the point of attachment. Lauroyl = CCCCCCCCCCCC(=O)*; Dab = NCC[C@H](N)C(=O)O
assay_readout: level at 4 h (µg/mL)
Note: unit µg/mL is implicit; provide only the numeric part.

Notebook: CCCCCCCCCCCC(=O)NCCCC[C@@H]1NC(=O)[C@H](Cc2ccc(O)cc2)NC(=O)[C@@H]2CSSC[C@H](NC(=O)[C@H](C)NC(=O)[C@H](Cc3c[nH]cn3)NC(=O)[C@H](Cc3ccc(O)cc3)NC(=O)[C@@H]3CCCN3C(=O)[C@H]3CCCN3C(=O)[C@H](CCCCN)NC1=O)C(=O)N[C@@H](CCCNC(=N)N)C(=O)N[C@@H](C)C(=O)N1CCC[C@@H]1C(=O)N[C@@H](CCN)C(=O)N[C@@H](CCCNC(=N)N)C(=O)N[C@@H](Cc1ccc(O)cc1)C(=O)N2 [Ex. 17] (cyclo(YHACRA[dP][Dab]RYCYK(Lauroyl)K[dP]P); disulfide 4-11) , level at 4 h read as 0.141

###

Items are presented alongside their recorded GI50.
Test: Cytotoxicity, MTT reduction assay, HELA cells
Type: cell-based
Details: HELA cells, 48 h, 12.5-50 μM
Bridge positions count the residues as written; N and C are the ends. Square brackets hold non-standard residues; d marks the D form. Peptide text beside a SMILES is read from it. * marks the point of attachment. Gly(decyl) = CCCCCCCCCC[C@H](N)C(=O)O; Octanoyl = CCCCCCCC(=O)*; Dab = NCC[C@H](N)C(=O)O

CCCCCCCCCC[C@@H]1NC(=O)[C@H](Cc2ccc(O)cc2)NC(=O)[C@@H]2CSSC[C@H](NC(=O)[C@H](Cc3ccc(O)cc3)NC(=O)[C@H](Cc3c[nH]cn3)NC(=O)[C@H](Cc3ccc(O)cc3)NC(=O)[C@@H]3CCCN3C(=O)[C@H]3CCCN3C(=O)[C@H](CCCCN)NC1=O)C(=O)N[C@@H](CCCNC(=N)N)C(=O)N[C@@H](C)C(=O)N1CCC[C@@H]1C(=O)N[C@@H](CCN)C(=O)N[C@@H](CCCNC(=N)N)C(=O)N[C@@H](Cc1ccc(O)cc1)C(=O)N2 [Ex. 8] (cyclo(YHYCRA[dP][Dab]RYCY[Gly(decyl)]K[dP]P); disulfide 4-11); > 26 µM

Here is the next item to consider.
Notebook: CCCCCCCC(=O)NCCCC[C@@H]1NC(=O)[C@H](CCC(N)=O)NC(=O)[C@H](Cc2ccc(O)cc2)NC(=O)[C@@H]2CSSC[C@H](NC(=O)[C@H](Cc3ccc(O)cc3)NC(=O)[C@H](CCCNC(=N)N)NC(=O)[C@H](Cc3ccc(O)cc3)NC(=O)[C@@H]3CCCN3C(=O)[C@H]3CCCN3C1=O)C(=O)N[C@@H](CO)C(=O)N[C@@H](C)C(=O)N1CCC[C@@H]1C(=O)N[C@@H](CCN)C(=O)N[C@@H](CCCNC(=N)N)C(=O)N[C@@H](Cc1ccc(O)cc1)C(=O)N2 [Ex. 32] (cyclo(YRYCSA[dP][Dab]RYCYQK(Octanoyl)[dP]P); disulfide 4-11) , GI50 read as > 24 µM

###

Experiment: Plasma stability in mouse plasma
Format: in vitro ADME
Details: mouse plasma, 37° C., 1440 min; read-out: mouse pl. cpd left at 1440 min
Bridge positions count the residues as written; N and C are the ends. Square brackets hold non-standard residues; d marks the D form. Peptide text beside a SMILES is read from it. * marks the point of attachment. Gly(Dodecyl) = CCCCCCCCCCCC[C@H](N)C(=O)O; Lauroyl = CCCCCCCCCCCC(=O)*; Octanoyl = CCCCCCCC(=O)*; Dab = NCC[C@H](N)C(=O)O
assay_readout: remaining at 24 h, 10 μM

Guide cases for remaining at 24 h, 10 μM, answers given:
CCCCCCCCCCCC(=O)NCCCC[C@@H]1NC(=O)[C@H](Cc2ccc(O)cc2)NC(=O)[C@@H]2CSSC[C@H](NC(=O)[C@H](C)NC(=O)[C@H](Cc3c[nH]cn3)NC(=O)[C@H](Cc3ccc(O)cc3)NC(=O)[C@@H]3CCCN3C(=O)[C@H]3CCCN3C(=O)[C@H](CCCCN)NC1=O)C(=O)N[C@@H](CCCNC(=N)N)C(=O)N[C@@H](C)C(=O)N1CCC[C@@H]1C(=O)N[C@@H](CCN)C(=O)N[C@@H](CCCNC(=N)N)C(=O)N[C@@H](Cc1ccc(O)cc1)C(=O)N2 [Ex. 17] (cyclo(YHACRA[dP][Dab]RYCYK(Lauroyl)K[dP]P); disulfide 4-11); 59%
CCCCCCCCCCCC[C@@H]1NC(=O)[C@H](Cc2c[nH]cn2)NC(=O)[C@H](Cc2ccc(O)cc2)NC(=O)[C@@H]2CCCN2C(=O)[C@H]2CCCN2C(=O)[C@H](CCCCN)NC(=O)[C@H](CCC(N)=O)NC(=O)[C@H](Cc2ccc(O)cc2)NC(=O)[C@@H]2CSSC[C@H](NC1=O)C(=O)N[C@@H](CCCNC(=N)N)C(=O)N[C@@H](C)C(=O)N1CCC[C@@H]1C(=O)N[C@@H](CCN)C(=O)N[C@@H](CCCNC(=N)N)C(=O)N[C@@H](Cc1ccc(O)cc1)C(=O)N2 [Ex. 2] (cyclo(YH[Gly(Dodecyl)]CRA[dP][Dab]RYCYQK[dP]P); disulfide 4-11); 62%
CCCCCCCCCCCC(=O)NCC[C@@H]1NC(=O)[C@H]2CCCN2C(=O)[C@H](C)NC(=O)[C@H](CCCNC(=N)N)NC(=O)[C@@H]2CSSC[C@H](NC(=O)[C@H](Cc3ccc(O)cc3)NC(=O)[C@H](CCCNC(=N)N)NC1=O)C(=O)N[C@@H](Cc1ccc(O)cc1)C(=O)N[C@@H](CCC(N)=O)C(=O)N[C@@H](CCCCN)C(=O)N1CCC[C@@H]1C(=O)N1CCC[C@H]1C(=O)N[C@@H](Cc1ccc(O)cc1)C(=O)N[C@@H](Cc1c[nH]cn1)C(=O)N[C@@H](C)C(=O)N2 [Ex. 5] (cyclo(YHACRA[dP][Dab](Lauroyl)RYCYQK[dP]P); disulfide 4-11); 73%

Notebook: CCCCCCCC(=O)NCCCC[C@@H]1NC(=O)[C@H](Cc2ccc(O)cc2)NC(=O)[C@@H]2CSSC[C@H](NC(=O)[C@H](Cc3ccc(O)cc3)NC(=O)[C@H](Cc3c[nH]cn3)NC(=O)[C@H](Cc3ccc(O)cc3)NC(=O)[C@@H]3CCCN3C(=O)[C@H]3CCCN3C(=O)[C@H](CCCCN)NC1=O)C(=O)N[C@@H](CO)C(=O)N[C@@H](C)C(=O)N1CCC[C@@H]1C(=O)N[C@@H](CCN)C(=O)N[C@@H](CCCNC(=N)N)C(=O)N[C@@H](Cc1ccc(O)cc1)C(=O)N2 [Ex. 12] (cyclo(YHYCSA[dP][Dab]RYCYK(Octanoyl)K[dP]P); disulfide 4-11) , remaining at 24 h, 10 μM read as 46%

###

Assay: Cytotoxicity, MTT reduction assay, COS-7 cells
Type: cell-based
Conditions: African green monkey, COS-7 cells (CRL-1651), 12.5-50 μM
Numbered stars: 1 amine (or outer) side, 2 acyl side, 3 side chain; on linkers, the order of the positions; unused ones are H or OH. Bridge positions count the residues as written; N and C are the ends. Square brackets hold non-standard residues; d marks the D form. Peptide text beside a SMILES is read from it. * marks the point of attachment. X2 = CCCCCCCCCC[C@@H](N[*:1])C(=O)[*:2]; Lauroyl = CCCCCCCCCCCC(=O)*; Decanoyl = CCCCCCCCCC(=O)*; Octanoyl = CCCCCCCC(=O)*; Dab = NCC[C@H](N)C(=O)O
assay_readout: GI50 at 48 h

Guide cases for GI50 at 48 h, answers given:
CCCCCCCC(=O)NCCCC[C@@H]1NC(=O)[C@H](Cc2c[nH]cn2)NC(=O)[C@H](Cc2ccc(O)cc2)NC(=O)[C@@H]2CCCN2C(=O)[C@H]2CCCN2C(=O)[C@H](CCCCN)NC(=O)[C@H](CCC(N)=O)NC(=O)[C@H](Cc2ccc(O)cc2)NC(=O)[C@@H]2CSSC[C@H](NC1=O)C(=O)N[C@@H](CO)C(=O)N[C@@H](C)C(=O)N1CCC[C@@H]1C(=O)N[C@@H](CCN)C(=O)N[C@@H](CCCNC(=N)N)C(=O)N[C@@H](Cc1ccc(O)cc1)C(=O)N2 [Ex. 3] (cyclo(YHK(Octanoyl)CSA[dP][Dab]RYCYQK[dP]P); disulfide 4-11); > 50 µM
CCCCCCCCCC[C@H]1NC(=O)[C@H](Cc2ccc(O)cc2)NC(=O)[C@@H]2CSSC[C@H](NC(=O)[C@H](C)NC(=O)[C@H](Cc3c[nH]cn3)NC(=O)[C@H](Cc3ccc(O)cc3)NC(=O)[C@@H]3CCCN3C(=O)[C@H]3CCCN3C(=O)[C@H](CCCCN)NC1=O)C(=O)N[C@@H](CCCNC(=N)N)C(=O)N[C@@H](C)C(=O)N1CCC[C@@H]1C(=O)N[C@@H](CCN)C(=O)N[C@@H](CCCNC(=N)N)C(=O)N[C@@H](Cc1ccc(O)cc1)C(=O)N2 [Ex. 9] (cyclo(YHACRA[dP][Dab]RYCY[X2]K[dP]P); disulfide 4-11); > 50 µM
CCCCCCCCCCCC(=O)NCC[C@@H]1NC(=O)[C@H](Cc2ccc(O)cc2)NC(=O)[C@@H]2CCCN2C(=O)[C@H]2CCCN2C(=O)[C@H](CCCCN)NC(=O)[C@H](CCC(N)=O)NC(=O)[C@H](Cc2ccc(O)cc2)NC(=O)[C@@H]2CSSC[C@H](NC(=O)[C@H](C)NC1=O)C(=O)N[C@@H](CCCNC(=N)N)C(=O)N[C@@H](C)C(=O)N1CCC[C@@H]1C(=O)N[C@@H](CCN)C(=O)N[C@@H](CCCNC(=N)N)C(=O)N[C@@H](Cc1ccc(O)cc1)C(=O)N2 [Ex. 1] (cyclo(Y[Dab](Lauroyl)ACRA[dP][Dab]RYCYQK[dP]P); disulfide 4-11); > 50 µM

Here is the next item to consider.
Notebook: CCCCCCCCCC(=O)NCCCC[C@@H]1NC(=O)[C@H](Cc2ccc(O)cc2)NC(=O)[C@@H]2CSSC[C@H](NC(=O)[C@H]([C@@H](C)O)NC(=O)[C@H](Cc3c[nH]cn3)NC(=O)[C@H](Cc3ccc(O)cc3)NC(=O)[C@@H]3CCCN3C(=O)[C@H]3CCCN3C(=O)[C@H](CCCCN)NC1=O)C(=O)N[C@@H](CCCNC(=N)N)C(=O)NCC(=O)N1CCC[C@@H]1C(=O)N[C@@H](CCN)C(=O)N[C@@H](CCCNC(=N)N)C(=O)N[C@@H](Cc1ccc(O)cc1)C(=O)N2 [Ex. 15] (cyclo(YHTCRG[dP][Dab]RYCYK(Decanoyl)K[dP]P); disulfide 4-11) , GI50 at 48 h read as > 40 µM
